Molecular target: HCV NS5B polymerase 1b BK strain (Hepatitis C virus genotype 1b, UniProt P26663)
Construct: six-histidine tag; made in house; host or cells: E. coli
Sequence (P26663 2420-2989): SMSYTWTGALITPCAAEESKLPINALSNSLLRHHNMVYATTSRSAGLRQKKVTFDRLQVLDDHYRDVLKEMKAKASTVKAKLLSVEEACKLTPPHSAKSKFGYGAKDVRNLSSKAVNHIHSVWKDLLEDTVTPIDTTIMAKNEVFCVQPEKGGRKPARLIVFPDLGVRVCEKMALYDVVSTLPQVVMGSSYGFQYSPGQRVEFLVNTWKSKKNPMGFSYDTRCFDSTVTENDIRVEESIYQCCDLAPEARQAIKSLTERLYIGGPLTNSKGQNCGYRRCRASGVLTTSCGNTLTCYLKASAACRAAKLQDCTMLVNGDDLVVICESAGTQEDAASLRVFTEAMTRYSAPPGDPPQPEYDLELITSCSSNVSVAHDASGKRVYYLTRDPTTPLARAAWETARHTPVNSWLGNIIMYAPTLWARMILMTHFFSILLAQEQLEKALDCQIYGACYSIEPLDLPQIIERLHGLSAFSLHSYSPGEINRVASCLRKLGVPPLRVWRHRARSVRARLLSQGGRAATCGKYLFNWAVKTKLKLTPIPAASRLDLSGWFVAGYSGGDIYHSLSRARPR
Assay: HCV NS5B polymerase enzymatic inhibition assay, strain 1b BK
Assay type: biochemical
Conditions: enzyme, strain 1b BK; read-out: HCV Polymerase Strain 1b BK IC50
What pIC50 was measured for each of the following?
Numbers only, as −log10 of the molar value.

Take a look at these entries with their results.
INSERT INTO measurements (molecule, target_entity, value_kind, val) VALUES
  ('CC(=O)CCCN(c1cc2oc(-c3ccc(F)cc3)c(-c3ncc[nH]3)c2cc1C1CC1)S(C)(=O)=O [Example 73]', 'HCV NS5B polymerase 1b BK strain (Hepatitis C virus genotype 1b, UniProt P26663)', 'pIC50', 7.82),
  ('C=CCN(c1cc2oc(-c3ccc(F)cc3)c(-c3ncc[nH]3)c2cc1C1CC1)S(C)(=O)=O [Example 57]', 'HCV NS5B polymerase 1b BK strain (Hepatitis C virus genotype 1b, UniProt P26663)', 'pIC50', 7.96),
  ('CC(C)(O)CCN(c1cc2oc(-c3ccc(F)cc3)c(C3=NOCCN3)c2cc1C1CC1)S(C)(=O)=O [Example 125]', 'HCV NS5B polymerase 1b BK strain (Hepatitis C virus genotype 1b, UniProt P26663)', 'pIC50', 7.22),
  ('CC1NC(c2c(-c3ccc(F)cc3)oc3cc(N(CCO)S(C)(=O)=O)c(C4CC4)cc23)=NO1 (stereo not shown) [Example 158]', 'HCV NS5B polymerase 1b BK strain (Hepatitis C virus genotype 1b, UniProt P26663)', 'pIC50', 7.44),
  ('CS(=O)(=O)N(CCCc1noc(=S)[nH]1)c1cc2oc(-c3ccc(F)cc3)c(-c3ncc[nH]3)c2cc1C1CC1 [Example 177]', 'HCV NS5B polymerase 1b BK strain (Hepatitis C virus genotype 1b, UniProt P26663)', 'pIC50', 7.44),
  ('Cc1cnc(-c2c(-c3ccc(F)cc3)oc3cc(N(CCC(C)C)S(C)(=O)=O)c(C4CC4)cc23)[nH]1 [Example 172]', 'HCV NS5B polymerase 1b BK strain (Hepatitis C virus genotype 1b, UniProt P26663)', 'pIC50', 6.75);

// for each molecule in input: emit pIC50
1. CC[S+]([O-])CCCN(c1cc2oc(-c3ccc(F)cc3)c(C3=NOCCN3)c2cc1C1CC1)S(C)(=O)=O (stereo not shown) [Example 144]
2. CC(C)CCN(c1cc2oc(-c3ccc(F)cc3)c(-c3nc(C(F)(F)F)c[nH]3)c2cc1C1CC1)S(C)(=O)=O [Example 171]
3. CS(=O)(=O)N(CCCN1CCCCC1)c1cc2oc(-c3ccc(F)cc3)c(C3=NOCCN3)c2cc1C1CC1 [Example 130]
4. CCCCCN(c1cc2oc(-c3ccc(F)cc3)c(-c3ncc[nH]3)c2cc1C1CC1)S(C)(=O)=O [Example 70]
5. COCCN(c1cc2oc(-c3ccc(F)cc3)c(-c3ncc[nH]3)c2cc1C1CC1)S(C)(=O)=O [Example 47]
6. CS(=O)(=O)CCN(c1cc2oc(-c3ccc(F)cc3)c(-c3ncc[nH]3)c2cc1C1CC1)S(C)(=O)=O [Example 87]
7. CC(C)(O)C(O)CCN(c1cc2oc(-c3ccc(F)cc3)c(-c3ncc[nH]3)c2cc1C1CC1)S(C)(=O)=O (stereo not shown) [Example 84]
8. Cc1ccc(C)n1-c1ccc2c(-c3ncc[nH]3)c(-c3ccccc3)oc2c1 [Example 166]

[7.04, 4.05, 6.64, 7.62, 7.39, 7.64, 7.72, 5.15]

List reported pIC50 for each of these molecules:
1. CC(O)CCCN(c1cc2oc(-c3ccc(F)cc3)c(-c3ncc[nH]3)c2cc1C1CC1)S(C)(=O)=O (stereo not shown) [Example 100]
2. CS(=O)(=O)N(CCCc1nnn[nH]1)c1cc2oc(-c3ccc(F)cc3)c(-c3ncc[nH]3)c2cc1C1CC1 [Example 174]
3. CS(=O)(=O)N(CCCCC(=O)O)c1cc2oc(-c3ccc(F)cc3)c(-c3ncc[nH]3)c2cc1C1CC1 [Example 92]

1: 8.10; 2: 7.73; 3: 8.22

Provide the reported pIC50 of each entry below, same order.
1. CS(=O)(=O)N(CCCc1nsc(=O)[nH]1)c1cc2oc(-c3ccc(F)cc3)c(C3=NOCCN3)c2cc1C1CC1 [Example 184]
2. CS(=O)(=O)N(Cc1ccccc1)c1ccc2c(-c3ncc[nH]3)c(-c3ccccc3)oc2c1 [Example 21]
3. CC1NC(c2c(-c3ccc(F)cc3)oc3cc(N(CCS(C)(=O)=O)S(C)(=O)=O)c(C4CC4)cc23)=NO1 (stereo not shown) [Example 12]
4. Cc1ccc(C)n1-c1nc(CCCN(c2cc3oc(-c4ccc(F)cc4)c(-c4ncc[nH]4)c3cc2C2CC2)S(C)(=O)=O)cs1 [Example 62]
5. CS(=O)(=O)N(CCCS(N)(=O)=O)c1cc2oc(-c3ccc(F)cc3)c(C3=NOCN3)c2cc1C1CC1 [Example 15]
6. CS(=O)(=O)N(Cc1cnc(-c2c[nH]c(=O)[nH]c2=O)s1)c1ccc2c(-c3ncc[nH]3)c(-c3ccccc3)oc2c1 [Example 29]
7. CS(=O)(=O)N(CCCC(F)(F)F)c1cc2oc(-c3ccc(F)cc3)c(-c3ncc[nH]3)c2cc1C1CC1 [Example 44]
8. CCOC(=O)CCCCN(c1cc2oc(-c3ccc(F)cc3)c(-c3ncc[nH]3)c2cc1C1CC1)S(C)(=O)=O [Example 50]

6.81
7.00
7.77
7.85
7.96
8.05
7.72
7.92

Give pIC50 for all molecules that follow.
1. CS(=O)(=O)N(CCCS(=O)(=O)c1ccccc1)c1cc2oc(-c3ccc(F)cc3)c(-c3ncc[nH]3)c2cc1C1CC1 [Example 90]
2. CC1NC(c2c(-c3ccc(F)cc3)oc3cc(N(CC[S+](C)[O-])S(C)(=O)=O)c(C4CC4)cc23)=NO1 (stereo not shown) [Example 13]
3. CS(=O)(=O)N(CCCN1CCCC1)c1cc2oc(-c3ccc(F)cc3)c(C3=NOCCN3)c2cc1C1CC1 [Example 132]

1. 8.00
2. 7.59
3. 6.61

* * *

What Stable Replicon Fold Resistance C316Y/1a was measured for each of the following?
Tested on: HCV 1a-H77 C316Y mutant subgenomic replicon
Assay: Stable replicon cell culture assay (luciferase), 1a-H77-C316Y mutant
Assay type: cell-based, HCV genotype 1a
Details: ratio of stable replicon EC50s, C316Y / 1a H77
Give bare numbers, in fold.

Worked cases, answers included:
INSERT INTO assay_data (compound, unit_name, val) VALUES
  ('CS(=O)(=O)N(CCc1csc(N)n1)c1cc2oc(-c3ccc(F)cc3)c(-c3ncc[nH]3)c2cc1C1CC1', 'fold', 34.9),
  ('CS(=O)(=O)N(CCCc1nsc(=O)[nH]1)c1cc2oc(-c3ccc(F)cc3)c(-c3ncc[nH]3)c2cc1C1CC1', 'fold', 10.0),
  ('CS(=O)(=O)N(CCO)c1cc2oc(-c3ccc(F)cc3)c(C3=NOCCN3)c2cc1C1CC1', 'fold', 42.0),
  ('CS(=O)(=O)N(CCCCO)c1cc2oc(-c3ccc(F)cc3)c(-c3noc(=O)[nH]3)c2cc1C1CC1', 'fold', 10.0),
  ('CC1NC(c2c(-c3ccc(F)cc3)oc3cc(N(CCO)S(C)(=O)=O)c(C4CC4)cc23)=NO1 (centres unmarked)', 'fold', 49.4);

// for each compound in input: emit Stable Replicon Fold Resistance C316Y/1a
1. CS(=O)(=O)CCCCN(c1cc2oc(-c3ccc(Nc4ccccc4)cc3)c(-c3ncc[nH]3)c2cc1C1CC1)S(C)(=O)=O
2. CC(C)CCN(c1cc2oc(-c3ccc(Nc4ccccc4)cc3)c(-c3ncc[nH]3)c2cc1C1CC1)S(C)(=O)=O
3. CCCC/C=C/c1ccc(-c2oc3cc(N(CCCCS(C)(=O)=O)S(C)(=O)=O)c(C4CC4)cc3c2-c2ncc[nH]2)cc1

1. 5.33
2. 0.711
3. 9.72

Quick one: give me Stable Replicon Fold Resistance C316Y/1a for each item below, same order please.
1. CS(=O)(=O)N(CCCc1n[nH]c(=O)o1)c1cc2oc(-c3ccc(F)cc3)c(-c3ncc[nH]3)c2cc1C1CC1
2. CS(=O)(=O)N(CCO)c1cc2oc(-c3ccc(F)cc3)c(-c3ncc[nH]3)c2cc1C1CC1

1: 70.0; 2: 23.6

I have this compound here, COc1ccc(-c2nn3ccc(-c4cc(C(=O)NC5(c6ccccc6)CC5)ccc4C)cc3c2C2=NOCCN2)cc1 , and I need its recorded Stable Replicon Fold Resistance C316Y/1a.
41.0

* * *

Would you kindly list IC50 for each of these compounds?
Molecular target: HCV NS5B polymerase 1a-H77 (Hepatitis C virus genotype 1a, UniProt P27958)
Construct: six-histidine tag; made in house; host or cells: E. coli
Sequence (P27958 2421-2990): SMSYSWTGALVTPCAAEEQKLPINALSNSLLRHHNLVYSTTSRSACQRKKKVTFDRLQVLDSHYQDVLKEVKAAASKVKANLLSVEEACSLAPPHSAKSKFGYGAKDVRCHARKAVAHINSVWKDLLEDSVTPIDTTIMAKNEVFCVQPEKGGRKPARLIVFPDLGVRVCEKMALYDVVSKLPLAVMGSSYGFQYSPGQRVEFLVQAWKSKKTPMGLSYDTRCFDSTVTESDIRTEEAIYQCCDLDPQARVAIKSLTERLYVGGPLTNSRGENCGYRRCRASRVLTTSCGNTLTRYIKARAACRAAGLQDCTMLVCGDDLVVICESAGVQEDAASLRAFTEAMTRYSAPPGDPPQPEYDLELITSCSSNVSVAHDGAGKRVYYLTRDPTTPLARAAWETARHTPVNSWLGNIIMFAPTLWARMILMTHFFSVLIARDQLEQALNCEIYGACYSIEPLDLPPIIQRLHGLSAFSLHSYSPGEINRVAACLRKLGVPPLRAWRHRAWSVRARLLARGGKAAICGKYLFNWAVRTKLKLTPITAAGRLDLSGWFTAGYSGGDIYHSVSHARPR
Assay: biochemical
Set-up: species or system HCV genotype 1a
Conditions: enzyme, strain 1a H77; read-out: HCV Polymerase Strain 1a H77 IC50
Answers are plain numbers, in nM.

List IC50 for every entry below, keeping the order given.
1. Cc1cnc(-c2c(-c3ccc(F)cc3)oc3cc(N(CCC(C)C)S(C)(=O)=O)c(C4CC4)cc23)[nH]1 [Example 172]
2. CS(=O)(=O)N(CCCc1noc(=O)[nH]1)c1cc2oc(-c3ccc(F)cc3)c(C3=NOCCN3)c2cc1C1CC1 [Example 182]

1. 13.3
2. 7

I'm hoping you can list IC50 for every compound here, please.
1. CS(=O)(=O)CCCCN(c1cc2oc(-c3ccc(F)cc3)c(-c3ncc[nH]3)c2cc1C1CC1)S(C)(=O)=O [Example 6]
2. CC1NC(c2c(-c3ccc(F)cc3)oc3cc(N(CC[S+](C)[O-])S(C)(=O)=O)c(C4CC4)cc23)=NO1 (centres unmarked) [Example 13]
3. CS(=O)(=O)N(Cc1cnc(Br)s1)c1cc2oc(-c3ccc(F)cc3)c(-c3ncc[nH]3)c2cc1C1CC1 [Example 67]
4. CS(=O)(=O)N(CCc1csc(N)n1)c1cc2oc(-c3ccc(F)cc3)c(-c3ncc[nH]3)c2cc1C1CC1 [Example 97]
5. CC(C)(O)C(=O)CCN(c1cc2oc(-c3ccc(F)cc3)c(-c3ncc[nH]3)c2cc1C1CC1)S(C)(=O)=O [Example 106]
6. CS(=O)(=O)CCCN(c1cc2oc(-c3ccc(F)cc3)c(C3=NOCCN3)c2cc1C1CC1)S(C)(=O)=O [Example 140]
7. CS(=O)(=O)CCCCN(c1cc2oc(-c3ccc(F)cc3)c(C3=NOCCN3)c2cc1C1CC1)S(C)(=O)=O [Example 122]

1: 5.2; 2: 7.4; 3: 3.5; 4: 6; 5: 7.3; 6: 5; 7: 6.9

Could I get IC50 for every one of these entries?
1. CS(=O)(=O)N(CCCN1CCOCC1)c1cc2oc(-c3ccc(F)cc3)c(C3=NOCCN3)c2cc1C1CC1 [Example 126]
2. CC(c1ccccc1)N(c1ccc2c(-c3ncc[nH]3)c(-c3ccccc3)oc2c1)S(C)(=O)=O (centres unmarked) [Example 20]
3. CC(C)(O)CCN(c1cc2oc(-c3ccc(F)cc3)c(C3=NOCCN3)c2cc1C1CC1)S(C)(=O)=O [Example 125]
4. CS(=O)(=O)N(Cc1sc(Br)nc1C(F)(F)F)c1ccc2c(-c3ncc[nH]3)c(-c3ccccc3)oc2c1 [Example 22]
5. COc1ccc(CN(c2cc3oc(-c4ccc(F)cc4)c(-c4ncc[nH]4)c3cc2OC(C)C)S(C)(=O)=O)cc1 [Example 170]

21.5
34.9
11
159
36
